Catalogue of compounds with associated pIC50
MEASUREMENT_TARGET: Neuronal acetylcholine receptor; alpha4/beta2 (Homo sapiens, UniProt P17787+P43681)
Sequence (P17787 whole entry): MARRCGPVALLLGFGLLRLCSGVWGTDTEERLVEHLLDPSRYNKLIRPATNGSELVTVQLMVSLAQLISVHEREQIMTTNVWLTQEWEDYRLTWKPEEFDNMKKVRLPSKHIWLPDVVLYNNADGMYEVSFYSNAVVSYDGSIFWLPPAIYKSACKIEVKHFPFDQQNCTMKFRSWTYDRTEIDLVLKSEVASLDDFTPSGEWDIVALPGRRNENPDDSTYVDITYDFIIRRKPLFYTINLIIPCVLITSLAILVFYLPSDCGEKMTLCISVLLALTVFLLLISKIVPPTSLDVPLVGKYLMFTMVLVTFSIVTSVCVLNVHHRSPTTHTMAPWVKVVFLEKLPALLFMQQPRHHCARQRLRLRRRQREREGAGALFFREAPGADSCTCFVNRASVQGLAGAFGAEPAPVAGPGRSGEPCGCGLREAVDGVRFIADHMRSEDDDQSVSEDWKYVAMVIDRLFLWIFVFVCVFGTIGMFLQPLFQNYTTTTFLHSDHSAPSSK
Sequence (P43681 whole entry): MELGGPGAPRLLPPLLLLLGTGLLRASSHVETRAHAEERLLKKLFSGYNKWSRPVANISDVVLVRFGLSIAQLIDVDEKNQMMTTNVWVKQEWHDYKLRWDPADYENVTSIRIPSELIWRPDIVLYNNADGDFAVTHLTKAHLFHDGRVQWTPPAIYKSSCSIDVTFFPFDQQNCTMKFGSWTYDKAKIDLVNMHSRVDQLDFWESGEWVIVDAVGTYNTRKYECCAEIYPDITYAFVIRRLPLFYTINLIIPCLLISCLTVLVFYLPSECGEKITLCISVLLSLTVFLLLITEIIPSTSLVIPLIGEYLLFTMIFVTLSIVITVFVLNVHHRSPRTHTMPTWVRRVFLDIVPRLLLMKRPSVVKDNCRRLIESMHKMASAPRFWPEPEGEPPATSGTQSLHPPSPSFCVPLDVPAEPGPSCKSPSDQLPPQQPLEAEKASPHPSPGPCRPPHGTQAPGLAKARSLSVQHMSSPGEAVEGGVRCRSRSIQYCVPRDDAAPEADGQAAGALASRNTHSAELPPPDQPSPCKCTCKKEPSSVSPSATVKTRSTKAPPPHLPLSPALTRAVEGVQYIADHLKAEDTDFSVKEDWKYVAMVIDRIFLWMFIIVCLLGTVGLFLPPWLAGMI
PROCEDURE_DETAILS: Displacement of [3H]cytisine from human alpha4beta2 nAChR expressed in HEK293 cells
Format: cell-based
Here pIC50 is given on a logarithmic scale as minus log10 of the concentration in mol/L.

C1=C(c2cccnc2)CC2CCCC1N2 (stereo not given) = 8.35

Quick one: give measured pIC50 for `Oc1cncc(N2CCCNCC2)c1`
8.62

State, in one line, measured pIC50 of `Brc1ccc(N2CCCNCC2)cn1`
9.00

For the compound `COc1cc(N2CCCNCC2)cnc1Cl` , give its measured pIC50 value.
9.17

Read off the recorded pIC50 for `Brc1ccc(N2CCCNCCC2)cn1`
9.35

Please look at this compound and report its pIC50: `CCSc1ccc(N2CCCNCC2)cn1`
6.77

Please supply the value of reported pIC50 for the item `COCCOc1cncc(N2CCCNCC2)c1`
8.62

Report pIC50, nothing else, for this compound: `Brc1cncc(N2CCCNCCC2)c1`
8.55

Dear colleague, please send me the reported pIC50 for `Cc1ncc(N2CCNCC2)cc1Cl` when you can.
6.28

Fill in pIC50 for record `Clc1ncc(N2CCNCC2)cc1Br`
6.64

----------
Attribute: IC50
MEASUREMENT_TARGET: Neuronal acetylcholine receptor; alpha4/beta2 (Homo sapiens, UniProt P17787+P43681)
PROCEDURE_DETAILS: Displacement of [3H]cytisine from human alpha4beta2 nAChR expressed in HEK293 cells
Format: cell-based
Just so you know, I need the unit written after the number.

COc1ccc(N2CCCNCC2)cn1 = 170 nM
C=COc1cc(N2CCCNCCC2)cnc1Br = 0.38 nM
C/C=C\Oc1cncc(N2CCCNCC2)c1 = 1.29 nM
COc1cncc(N2CCCNCCC2)c1 = 1 nM
Brc1ccc(N2CCNCC2)cn1 = 182 nM

Report IC50 from Neuronal acetylcholine receptor; alpha4/beta2 (Homo sapiens, UniProt P17787+P43681) testing of `Oc1cc(N2CCCNCC2)cnc1I`
21.9 nM

GET IC50 where system = Neuronal acetylcholine receptor; alpha4/beta2 (Homo sapiens, UniProt P17787+P43681) and item = `c1cncc(N2CCCNCCC2)c1`
0.891 nM

Name the recorded IC50 of COc1cncc(C2=CC3CCCC(C2)N3)c1 (stereo not given) , assay system Neuronal acetylcholine receptor; alpha4/beta2 (Homo sapiens, UniProt P17787+P43681).
3.02 nM

# return IC50 of C1=C(c2cccnc2)CC2CCC1N2 (stereo not given) (system: Neuronal acetylcholine receptor; alpha4/beta2 (Homo sapiens, UniProt P17787+P43681))
6.76 nM

Lab note: record IC50 of `C=COc1cc(N2CCCNCC2)cnc1Br` tested on Neuronal acetylcholine receptor; alpha4/beta2 (Homo sapiens, UniProt P17787+P43681).
0.646 nM

Answer briefly: IC50 recorded on Neuronal acetylcholine receptor; alpha4/beta2 (Homo sapiens, UniProt P17787+P43681) for Clc1cncc(OC2CCCNC2)c1 (stereo not given)
240 nM

Write IC50 of `NC(=O)c1cncc(N2CCCNCC2)c1` ; system used: Neuronal acetylcholine receptor; alpha4/beta2 (Homo sapiens, UniProt P17787+P43681)
20 nM

Tell me IC50 of `c1ccc2ncc(N3CCCNCC3)cc2c1` when tested on Neuronal acetylcholine receptor; alpha4/beta2 (Homo sapiens, UniProt P17787+P43681).
6.61 nM

Provide IC50, system Neuronal acetylcholine receptor; alpha4/beta2 (Homo sapiens, UniProt P17787+P43681), entry `CCOc1cc(N2CCCNCC2)cnc1Br`
0.871 nM

Name the recorded IC50 of `COc1cncc(N2CCCNCC2)c1` , assay system Neuronal acetylcholine receptor; alpha4/beta2 (Homo sapiens, UniProt P17787+P43681).
1.91 nM

----------
MEASUREMENT_TARGET: Neuronal acetylcholine receptor; alpha4/beta2 (Homo sapiens, UniProt P17787+P43681)
PROCEDURE_DETAILS: Intrinsic activity at human alpha4beta2 nAChR expressed in HEK293 cells assessed as intracellular calcium level by FLIPR assay relative to (-)nicotine
Format: cell-based
Hi, to clarify the labels: T covers Efficacy from 60% upward, F covers anything below 60%.

Threshold query (Efficacy >= 60%) on `C/C=C\Oc1cncc(N2CCCNCC2)c1`
F

Assess whether reported Efficacy for c1cncc(OC2CCNC2)c1 (stereo not given) sits at 60% or higher.
F

Could you verify whether the entry `c1cncc(N2CCCNCCC2)c1` shows Efficacy of no less than 60%?
T

Evaluate `Oc1cncc(N2CCCNCC2)c1` : Efficacy at minimum 60%?
T

Is Efficacy for `Clc1cncc(N2CCNCC2)c1` at or above 60%?
F

----------
# key: entry, value: EC50
MEASUREMENT_TARGET: Neuronal acetylcholine receptor; alpha4/beta2 (Homo sapiens, UniProt P17787+P43681)
PROCEDURE_DETAILS: Agonist activity at human alpha4beta2 nAChR expressed in HEK293 cells assessed as intracellular calcium level by FLIPR assay
I'd appreciate it if you included the unit after the number.

COc1ccc(N2CCCNCC2)cn1 = 11 µM
CCSc1ccc(N2CCCNCC2)cn1 = 4.47 µM
Clc1ncc(N2CCCNCC2)cc1Br = 0.0575 µM
Brc1cncc(N2CCCNCCC2)c1 = 0.182 µM
Clc1cc(N2CCCNCC2)cnc1Br = 0.0151 µM

Fill in: EC50 on Neuronal acetylcholine receptor; alpha4/beta2 (Homo sapiens, UniProt P17787+P43681), entry `COc1cc(N2CCNCC2)cnc1Br`
17 µM

Answer briefly: EC50 recorded on Neuronal acetylcholine receptor; alpha4/beta2 (Homo sapiens, UniProt P17787+P43681) for `c1cncc(N2CCCNCCC2)c1`
0.0363 µM

Quote Neuronal acetylcholine receptor; alpha4/beta2 (Homo sapiens, UniProt P17787+P43681) EC50 for entry `C=COc1cncc(N2CCCNCC2)c1` .
1.1 µM

Write down the reported EC50 (system: Neuronal acetylcholine receptor; alpha4/beta2 (Homo sapiens, UniProt P17787+P43681)) of c1cncc(OC2CCNC2)c1 (configuration not stated)
28.8 µM

Give Neuronal acetylcholine receptor; alpha4/beta2 (Homo sapiens, UniProt P17787+P43681) EC50 for the following compound: `C=COc1cc(N2CCCNCCC2)cnc1Br`
0.24 µM

Provide measured EC50 on Neuronal acetylcholine receptor; alpha4/beta2 (Homo sapiens, UniProt P17787+P43681) for `C/C=C\Oc1cncc(N2CCCNCC2)c1` please.
2.09 µM

GET EC50 where system = Neuronal acetylcholine receptor; alpha4/beta2 (Homo sapiens, UniProt P17787+P43681) and item = `Brc1ccc(N2CCCNCC2)cn1`
0.0646 µM

----------
# Lookup of reported Efficacy keyed by entry
MEASUREMENT_TARGET: Neuronal acetylcholine receptor; alpha4/beta2 (Homo sapiens, UniProt P17787+P43681)
PROCEDURE_DETAILS: Intrinsic activity at human alpha4beta2 nAChR expressed in HEK293 cells assessed as intracellular calcium level by FLIPR assay relative to (-)nicotine
Assay type: cell-based
Please give a number only; it is taken to be in %.

Brc1cncc(N2CCCNCCC2)c1 = 73
Oc1cc(N2CCCNCC2)cnc1I = 104
C=COc1cc(N2CCCNCCC2)cnc1Br = 90
c1ccc2ncc(N3CCCNCC3)cc2c1 = 33
Brc1ccc(N2CCCNCCC2)cn1 = 139
C1=C(c2cccnc2)CC2CCCC1N2 (stereo not given) = 34
NC(=O)c1cncc(N2CCCNCC2)c1 = 56
Clc1ncc(N2CCNCC2)cc1Br = 98
COc1cc(N2CCNCC2)cnc1Br = 68
C1=C(c2cccnc2)CC2CCC1N2 (stereo not given) = 66

// switching to the query compound
Give Efficacy for `Brc1ccc(N2CCCNCC2)cn1` tested on Neuronal acetylcholine receptor; alpha4/beta2 (Homo sapiens, UniProt P17787+P43681).
88

----------
MEASUREMENT_TARGET: Neuronal acetylcholine receptor; alpha4/beta2 (Homo sapiens, UniProt P17787+P43681)
PROCEDURE_DETAILS: Displacement of [3H]cytisine from human alpha4beta2 nAChR expressed in HEK293 cells
Readings of IC50 for the listed compounds
// note: answer is a bare numeric in nM

The following compounds have reported results that may help.
c1cncc(OC[C@@H]2CCN2)c1 = 1.51
C=COc1cncc(N2CCNCC2)c1 = 191
c1cncc(OC2CCNC2)c1 (stereo not drawn) = 100
Clc1ncc(N2CCCNCC2)cc1Br = 1.41
c1cncc(OC2CCCNC2)c1 (stereo not drawn) = 191

Look up and state reported IC50 for `C=COc1cncc(N2CCCNCC2)c1`
5.01

Specify IC50 for `Clc1cncc(N2CCCNCCC2)c1` and stop.
2

Supply recorded IC50 for `Clc1cc(N2CCCNCC2)cnc1Br` here.
1.41
